Assay: Apparent permeability from apical to basolateral side in MDCK-MDR1 cells monolayer at 5 uM after 60 mins by LC-MS/MS analysis
Conditions: dog
For each record, check the reported Papp A→B at 1 h, 5 µM: if it is below 40 ×10⁻⁶ cm/s write criterion met, else write criterion not met.

{"compound-structure-string": "CCS(=O)(=O)c1ccc(O[C@@H](C)C(F)(F)F)c(C(=O)N2Cc3cn(-c4ccccc4F)nc3C2)c1", "label-class": "criterion met"}
{"compound-structure-string": "CS(=O)(=O)c1ccc(OCC2CC2)c(C(=O)N2Cc3cn(-c4ccccc4F)nc3C2)c1", "label-class": "criterion met"}
{"compound-structure-string": "CC(C)S(=O)(=O)c1ccc(O[C@@H](C)C(F)(F)F)c(C(=O)N2Cc3cn(-c4ccccc4)nc3C2)c1", "label-class": "criterion not met"}
{"compound-structure-string": "CCS(=O)(=O)c1ccc(O[C@@H](C)C(F)(F)F)c(C(=O)N2Cc3cn(-c4cncc(F)c4)nc3C2)c1", "label-class": "criterion met"}
{"compound-structure-string": "C[C@H](Oc1ccc(C#N)cc1C(=O)N1Cc2cn(-c3ccccc3F)nc2C1)C(F)(F)F", "label-class": "criterion not met"}

---

Target: Cytochrome P450 1A2 (Homo sapiens, UniProt P05177)
Sequence (P05177 whole entry): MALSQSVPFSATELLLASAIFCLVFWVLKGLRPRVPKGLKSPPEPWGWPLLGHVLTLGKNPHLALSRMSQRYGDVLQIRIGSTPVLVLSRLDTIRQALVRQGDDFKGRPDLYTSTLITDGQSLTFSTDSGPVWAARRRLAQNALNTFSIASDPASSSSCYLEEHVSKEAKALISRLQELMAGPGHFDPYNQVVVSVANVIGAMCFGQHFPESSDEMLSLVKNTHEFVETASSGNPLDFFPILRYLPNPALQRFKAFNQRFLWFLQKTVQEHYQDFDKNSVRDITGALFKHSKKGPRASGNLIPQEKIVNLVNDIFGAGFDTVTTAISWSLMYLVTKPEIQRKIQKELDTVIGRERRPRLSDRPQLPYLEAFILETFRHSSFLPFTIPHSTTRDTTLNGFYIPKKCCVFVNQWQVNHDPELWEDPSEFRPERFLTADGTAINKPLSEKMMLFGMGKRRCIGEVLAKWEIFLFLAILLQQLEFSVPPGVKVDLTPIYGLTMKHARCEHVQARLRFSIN

{"compound-structure-string": "CCS(=O)(=O)c1ccc(O[C@@H](C)C(F)(F)F)c(C(=O)N2Cc3cn(-c4cncc(F)c4)nc3C2)c1", "IC50": "> 10 µM"}

---

Reported Papp at 1 h, 100 µM values are given for each entry in this list.
Assay: Permeability of the compound at pH 7.4 at 100 uM after 60 mins by PAMPA-BBB assay
readout-label: Papp at 1 h, 100 µM

{"compound-structure-string": "C[C@H](Oc1ccc(C#N)cc1C(=O)N1Cc2cn(-c3ccccc3F)nc2C1)C(F)(F)F", "readout-label": "Papp at 1 h, 100 µM", "assay-value": "> 10 ×10⁻⁶ cm/s"}
{"compound-structure-string": "Cc1cc(-n2cc3c(n2)CN(C(=O)c2cc(C#N)ccc2OCC2CC2)C3)ccn1", "readout-label": "Papp at 1 h, 100 µM", "assay-value": "> 10 ×10⁻⁶ cm/s"}
{"compound-structure-string": "CS(=O)(=O)c1ccc(OCC2CC2)c(C(=O)N2Cc3cn(-c4ccccc4F)nc3C2)c1", "readout-label": "Papp at 1 h, 100 µM", "assay-value": "77.9 ×10⁻⁶ cm/s"}

---

List of pIC50 values.
Target: UniProtKB P28572
Sequence (P28572 whole entry): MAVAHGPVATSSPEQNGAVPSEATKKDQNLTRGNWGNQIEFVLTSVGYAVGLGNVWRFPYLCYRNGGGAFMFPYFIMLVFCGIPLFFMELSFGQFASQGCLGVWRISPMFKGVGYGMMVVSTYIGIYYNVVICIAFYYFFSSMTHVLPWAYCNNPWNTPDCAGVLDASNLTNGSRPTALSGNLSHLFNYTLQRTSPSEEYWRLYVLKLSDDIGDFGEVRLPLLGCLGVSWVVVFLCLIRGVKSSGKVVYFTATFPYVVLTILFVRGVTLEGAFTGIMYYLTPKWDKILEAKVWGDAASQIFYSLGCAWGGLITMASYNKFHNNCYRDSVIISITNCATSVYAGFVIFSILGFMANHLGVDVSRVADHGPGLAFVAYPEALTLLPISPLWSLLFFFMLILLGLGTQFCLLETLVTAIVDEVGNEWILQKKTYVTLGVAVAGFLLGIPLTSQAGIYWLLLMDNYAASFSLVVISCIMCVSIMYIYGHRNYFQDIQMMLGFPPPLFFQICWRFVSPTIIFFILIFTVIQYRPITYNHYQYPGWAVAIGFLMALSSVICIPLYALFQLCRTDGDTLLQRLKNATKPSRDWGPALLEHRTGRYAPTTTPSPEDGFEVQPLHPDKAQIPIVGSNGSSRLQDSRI
Experiment: Inhibition of GlyT1 in primary rat cortical neurons assessed as reduction in [14C]glycine uptake after 2 hrs by microbeta scintillation counting method
pIC50: −log10 of the molar value.
readout-label: pIC50

{"compound-structure-string": "CC(C)Oc1ccc(S(C)(=O)=O)cc1C(=O)N1Cc2cn(-c3ccccc3F)nc2C1", "readout-label": "pIC50", "assay-value": 7.74}
{"compound-structure-string": "CS(=O)(=O)c1ccc(OCC2CC2)c(C(=O)N2Cc3cn(-c4ccccc4F)nc3C2)c1", "readout-label": "pIC50", "assay-value": 7.55}
{"compound-structure-string": "Cc1cc(-n2cc3c(n2)CN(C(=O)c2cc(S(C)(=O)=O)ccc2-c2cccc(F)c2)C3)ccn1", "readout-label": "pIC50", "assay-value": 8.70}
{"compound-structure-string": "Cc1cc(-n2cc3c(n2)CN(C(=O)c2cc(C#N)ccc2-c2cccc(F)c2)C3)ccn1", "readout-label": "pIC50", "assay-value": 7.11}
{"compound-structure-string": "Cc1cc(-n2cc3c(n2)CN(C(=O)c2cc(C#N)ccc2O[C@@H](C)C(F)(F)F)C3)ccn1", "readout-label": "pIC50", "assay-value": 7.57}
{"compound-structure-string": "CS(=O)(=O)c1ccc(N2CCC(F)(F)CC2)c(C(=O)N2Cc3cn(-c4cncc(F)c4)nc3C2)c1", "readout-label": "pIC50", "assay-value": 8.00}
{"compound-structure-string": "C[C@H](Oc1ccc(C#N)cc1C(=O)N1Cc2cn(-c3cncc(F)c3)nc2C1)C(F)(F)F", "readout-label": "pIC50", "assay-value": 7.09}
{"compound-structure-string": "CC(C)Oc1ccc(C#N)cc1C(=O)N1Cc2cn(-c3ccccc3)nc2C1", "readout-label": "pIC50", "assay-value": 6.79}
